Multi-source literature compilation: IC50 on Somatostatin receptor type 1 (Homo sapiens, UniProt P30872).
Sequence (P30872 whole entry): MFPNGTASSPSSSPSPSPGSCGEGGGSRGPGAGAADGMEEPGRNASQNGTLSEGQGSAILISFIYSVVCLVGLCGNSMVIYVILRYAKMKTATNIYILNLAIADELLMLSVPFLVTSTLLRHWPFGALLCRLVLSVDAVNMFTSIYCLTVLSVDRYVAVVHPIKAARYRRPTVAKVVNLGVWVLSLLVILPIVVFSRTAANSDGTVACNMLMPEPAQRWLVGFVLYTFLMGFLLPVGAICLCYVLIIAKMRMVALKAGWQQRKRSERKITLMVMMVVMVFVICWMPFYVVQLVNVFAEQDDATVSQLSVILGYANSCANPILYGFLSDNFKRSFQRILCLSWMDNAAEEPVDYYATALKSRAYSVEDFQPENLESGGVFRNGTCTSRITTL

These recorded examples may help you get a feel for the data.
CC(=O)N[C@@H](Cc1ccccc1)C(=O)N[C@]1(C)Cc2c([nH]c3ccccc23)CN([C@@H](CCCCN)C(=O)N[C@H](C(N)=O)[C@@H](C)O)C1=O :: > 1 µM
C[C@@H](O)[C@@H]1NC(=O)[C@H](N(C)C(=O)CCN)NC(=O)[C@@H](Cc2c[nH]c3ccccc23)NC(=O)[C@H](Cc2ccccc2)NC(=O)[C@H](Cc2ccccc2)NC(=O)[C@@H](N)CSSC[C@@H](C(=O)O)NC(=O)[C@H](Cc2ccccc2)NC1=O :: > 1 µM

Would you kindly look at the next entry?
Hello, I am looking for reported IC50 with Somatostatin receptor type 1 (Homo sapiens, UniProt P30872) for C[C@@H]1NC(=O)[C@H](Cc2ccccc2)NC(=O)[C@@H](N)CSSC[C@@H](C(=O)O)NC(=O)[C@H](C)NC(=O)[C@H]([C@@H](C)O)NC(=O)[C@H](CCCCN)NC(=O)[C@H](Cc2c[nH]c3ccccc23)NC1=O . Could you help? > 10 µM

----------
Multi-source literature compilation: IC50 on Somatostatin receptor type 1 (Homo sapiens, UniProt P30872).

These recorded examples may help you get a feel for the data.
C[C@@H](O)[C@@H]1NC(=O)[C@H](CCCCN)NC(=O)[C@H](Cc2c[nH]c3ccccc23)NC(=O)[C@H](Cc2ccc(N)cc2)NC(=O)[C@H](Cc2ccccc2)NC(=O)[C@@H](NC(=O)[C@H](Cc2ccc(O)c(I)c2)NC(N)=O)CSSC[C@@H](C(=O)O)NC(=O)[C@H](Cc2ccccc2)NC1=O :: > 1000 nM
CC(C)NCc1ccc(C[C@@H]2NC(=O)[C@@H](Cc3cn(Cc4ccccc4)cn3)NC(=O)[C@H](Cc3ccccc3)NC(=O)[C@H](Cc3ccccc3)NC(=O)[C@H](CCCCN)NC(=O)[C@@H](N)CSSC[C@@H](C(=O)O)NC(=O)[C@H](CO)NC(=O)[C@H]([C@@H](C)O)NC(=O)[C@H](Cc3ccccc3)NC(=O)[C@H]([C@@H](C)O)NC2=O)cc1 :: > 1000 nM
C[C@@H](O)[C@@H]1NC(=O)[C@@H](N(C)C(=O)CCN)NC(=O)[C@@H](Cc2c[nH]c3ccccc23)NC(=O)[C@H](Cc2ccccc2)NC(=O)[C@H](Cc2ccccc2)NC(=O)[C@@H](N)CSSC[C@@H](C(=O)O)NC(=O)[C@H](Cc2ccccc2)NC1=O :: > 10000 nM

Would you kindly look at the next entry?
Hello, I am looking for reported IC50 with Somatostatin receptor type 1 (Homo sapiens, UniProt P30872) for C[C@@H]1NC(=O)[C@H](Cc2ccccc2)NC(=O)[C@@H](NC(=O)[C@@H](N)Cc2ccc(O)cc2)CSSC[C@@H](C(=O)O)NC(=O)[C@H](Cc2ccccc2)NC(=O)[C@H]([C@@H](C)O)NC(=O)[C@H](CCCCN)NC(=O)[C@@H]([C@@H](C)c2c[nH]c3ccccc23)NC1=O . Could you help? > 1000 nM

----------
Multi-source literature compilation: pIC50 on Somatostatin receptor type 1 (Homo sapiens).
pIC50: −log10 of the molar value.

# lookup: pIC50 of CC(C)NCc1ccc(C[C@@H]2NC(=O)[C@@H](Cc3c[nH]c4ccccc34)NC(=O)[C@H](Cc3ccccc3)NC(=O)[C@@H]3CC(=O)NC[C@H](NC(=O)[C@H](Cc4ccccc4)NC(=O)[C@H]([C@@H](C)O)NC2=O)C(=O)N[C@@H](CO)C(=O)N[C@H](C(=O)O)CSSC[C@H](NC(=O)[C@@H](N)Cc2ccc(O)cc2)C(=O)N[C@@H](CCCCN)C(=O)N3)cc1 < 6.00

# lookup: pIC50 of CC(=O)N[C@@H]1CSSC[C@H](C(=O)O)NC(=O)[C@H](Cc2ccccc2)NC(=O)[C@H]([C@@H](C)O)NC(=O)[C@H](CCCCN)NC(=O)[C@@H](Cc2c[nH]c3ccccc23)NC(=O)[C@H](Cc2ccccc2)NC(=O)[C@H](Cc2ccccc2)NC1=O < 6.00

# lookup: pIC50 of C[C@@H](O)[C@@H]1NC(=O)[C@H](CCCCN)NC(=O)[C@@H](Cc2c[nH]c3ccccc23)NC(=O)[C@H](Cc2ccccc2)NC(=O)[C@H](Cc2ccccc2)NC(=O)[C@@H](N)CSSC[C@@H](C(=O)O)NC1=O < 6.00

# lookup: pIC50 of C[C@H](c1ccc2ccccc2c1)[C@@H]1NC(=O)[C@H](Cc2ccc(N)cc2)NC(=O)[C@H](Cc2ccccc2)NC(=O)[C@H](NC(=O)[C@@H](N)Cc2ccc(O)cc2)CSSC[C@@H](C(=O)O)NC(=O)[C@H](Cc2ccccc2)NC(=O)[C@H]([C@@H](C)O)NC(=O)[C@H](CCCCN)NC1=O < 6.00

# lookup: pIC50 of NCCCC[C@@H]1NC(=O)[C@@H](Cc2c[nH]c3ccccc23)NC(=O)[C@H](Cc2ccccc2)NC(=O)[C@H](Cc2ccccc2)NC(=O)[C@@H](N)CSSC[C@@H](C(=O)O)NC(=O)[C@H](Cc2ccccc2)NC1=O < 6.00
